- assay.notes: in vitro
- Format: cell-based, Human
- assay.conditions: human, 1 μM
recorded.metric: cytotoxicity at 48 h, 1 µM (%)

>>> df
                                   compound  endpoint_result
0  CCN(CCO)CCCC(C)Nc1ccnc2cc(Cl)ccc12 (stereo not shown) [Hydroxychloroquine sulphate]             -5.2
